# Target desc: recombinant human 17β-HSD2 (Homo sapiens)
# Construct: made in house; host or cells: Sd9 (Sf9) insect cells, baculovirus (Bac to Bac Expression System)
# Sequence (P37059 whole entry): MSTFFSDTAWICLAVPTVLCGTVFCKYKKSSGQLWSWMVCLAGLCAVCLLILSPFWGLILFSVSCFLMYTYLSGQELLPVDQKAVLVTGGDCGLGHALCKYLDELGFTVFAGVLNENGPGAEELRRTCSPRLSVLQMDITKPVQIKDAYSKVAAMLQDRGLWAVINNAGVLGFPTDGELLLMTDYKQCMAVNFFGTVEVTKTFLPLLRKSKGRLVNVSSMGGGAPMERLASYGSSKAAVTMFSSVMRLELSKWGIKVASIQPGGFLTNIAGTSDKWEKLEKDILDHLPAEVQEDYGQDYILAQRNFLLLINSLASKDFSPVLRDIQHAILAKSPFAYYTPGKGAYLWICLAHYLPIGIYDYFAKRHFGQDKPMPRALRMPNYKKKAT
# Assay explanation: Inhibition of recombinant human 17β-HSD2
# Type: biochemical
# Study conditions: inhibitor 1 μM; 50 nM estradiol, 1 mM NADH, 30 min RT
Reported inhibition at 1 µM values are given for each entry in this list.
Metric: inhibition at 1 µM (%)

1) CC(C)c1ccc(NC(=O)CC[C@@H]2C/C(=N\O)[C@@]3(C)CCC4c5ccc(F)cc5CCC4C23)nc1 (stereo partly shown) = -5
2) COc1ccc(NC(=O)CC[C@@H]2C/C(=N\O)[C@@]3(C)CCC4c5ccccc5CCC4C23)nc1 (stereo partly shown) = -15
3) C[C@]12CCC3c4ccc(Cl)cc4CCC3C1[C@H](CCC(=O)Nc1ccccn1)C/C2=N\O (stereo partly shown) = 3
4) C[C@]12CCC3c4cccc(F)c4CCC3C1[C@H](CCC(=O)Nc1ccc(N3CCOCC3)cn1)C/C2=N\O (stereo partly shown) = 7
